Details: in n-propanol, 283.15 K
Recorded Endpoint: solubility (mole fraction)
Just the number.

### Prompt solubility (mole fraction) for C=CC(=O)NC(C)(C)CS(=O)(=O)O ?
### Response 0.00399

---

Details: in n-heptanol, 323.15 K
Recorded Endpoint: solubility (mole fraction)

### Prompt Which solubility (mole fraction) value is on record for C=CC(=O)NC(C)(C)CS(=O)(=O)O ?
### Response 0.0118

---

Details: in ethyl acetate, 298.15 K
Recorded Endpoint: solubility (mole fraction)
Answer with a number only.

### Prompt solubility (mole fraction) for C=CC(=O)NC(C)(C)CS(=O)(=O)O ?
### Response 0.00262

Taken from BigSolDB 2.1.
